Entries with reported pIC50 on Jack bean urease (Canavalia ensiformis)
Sequence (P07374 whole entry, looked up): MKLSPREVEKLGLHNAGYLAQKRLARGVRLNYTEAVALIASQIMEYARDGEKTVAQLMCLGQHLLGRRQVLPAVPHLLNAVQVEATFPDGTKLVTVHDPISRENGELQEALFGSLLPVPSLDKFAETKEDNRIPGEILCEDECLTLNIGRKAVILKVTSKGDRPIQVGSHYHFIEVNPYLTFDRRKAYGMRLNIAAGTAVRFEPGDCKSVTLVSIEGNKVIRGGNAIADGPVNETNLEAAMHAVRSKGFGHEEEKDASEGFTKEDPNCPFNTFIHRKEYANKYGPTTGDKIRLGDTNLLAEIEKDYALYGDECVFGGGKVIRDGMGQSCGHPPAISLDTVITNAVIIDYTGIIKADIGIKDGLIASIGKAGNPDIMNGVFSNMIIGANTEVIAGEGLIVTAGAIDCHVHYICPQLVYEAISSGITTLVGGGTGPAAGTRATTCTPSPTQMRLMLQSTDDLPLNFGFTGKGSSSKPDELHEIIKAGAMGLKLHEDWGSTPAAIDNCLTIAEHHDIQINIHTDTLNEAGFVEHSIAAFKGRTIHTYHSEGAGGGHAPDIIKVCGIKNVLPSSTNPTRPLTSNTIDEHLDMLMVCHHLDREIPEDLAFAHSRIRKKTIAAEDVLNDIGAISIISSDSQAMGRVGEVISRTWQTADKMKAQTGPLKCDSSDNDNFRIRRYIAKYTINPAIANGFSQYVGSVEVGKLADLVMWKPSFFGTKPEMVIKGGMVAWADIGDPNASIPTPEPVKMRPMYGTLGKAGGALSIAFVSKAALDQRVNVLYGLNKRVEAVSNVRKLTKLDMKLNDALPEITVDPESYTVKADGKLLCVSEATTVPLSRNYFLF
Please note pIC50 is a logarithmic value: minus log10 of concentration in mol/L. Answer with that number alone.

Task item: pIC50 for C[C@H]1[C@H](C)CC[C@]2(C)CC[C@]3(C)C(=CC(=O)[C@@H]4[C@@]5(C)CC[C@@H](O)[C@](C)(C(=O)O)[C@@H]5CC[C@]43C)[C@H]12 ?
Reply: 4.07

Task item: pIC50 for CC(=O)OC1CCC2(C)C(CCC3(C)C2C(O)C=C2C4C(C)C(C)CCC4(C)CCC23C)C1(C)C(=O)O (stereo not drawn) [compound 2, 3-O-acetyl-11-hydroxy-β-boswellic acid] ?
Reply: 5.04

Task item: pIC50 for CC(=O)O[C@@H]1CC[C@@]2(C)[C@@H](CC[C@]3(C)[C@@H]2C(=O)C=C2[C@@H]4[C@@H](C)[C@H](C)CC[C@]4(C)CC[C@]23C)[C@@]1(C)C(=O)O ?
Reply: 4.79
